Every entry's value here was drawn from PubChem BioAssay.

- Test system: wheat germ agglutinin (Triticum aestivum), Alexa647-labelled
- measurement_protocol: wheat germ agglutinin binders on compound microarrays, profiling panel, artefact control for SMM control-protein annotation, biochemical, small-molecule microarray, 635/667 nm fluorescence (AID 1140);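 further: score merges 667 nm feature emission with signal to noise over triplicate slides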
- test_conditions: WGA-A647 binding, 635 nm fluorescence, higher = more signal
value_kind: composite z-score

## Input Hi! What's the reported composite z-score for CCOC(=O)C1=C[C@@H](CC)N(S(=O)(=O)c2ccc(C)cc2)[C@H]1c1ccccc1 on wheat germ agglutinin (Triticum aestivum), Alexa647-labelled?
## Output 0.749

## Input So what composite z-score did O=C/C=C/c1ccc2c(c1)OCO2 get with wheat germ agglutinin (Triticum aestivum), Alexa647-labelled?
## Output -0.273

## Input Param readout= composite z-score; system= wheat germ agglutinin (Triticum aestivum), Alexa647-labelled; entry= [N-]=[N+]=NCc1ccccc1C[C@]1(C(=O)O)N=C(c2ccc(OCCCO)cc2)O[C@H]1c1ccccc1 ; returns value.
## Output 1.2

## Input Lab request: please report composite z-score under test system wheat germ agglutinin (Triticum aestivum), Alexa647-labelled for C=CC(=C)C1=CCO[C@@H]1[C@H]1CCCN1S(=O)(=O)c1ccccc1[N+](=O)[O-]
## Output 0.241

## Input Field: composite z-score (wheat germ agglutinin (Triticum aestivum), Alexa647-labelled). Entry: [N-]=[N+]=NCc1ccccc1C[C@]1(C(=O)NCC(O)CO)N=C(c2ccc(OCCCO)cc2)O[C@H]1c1ccccc1N=[N+]=[N-] (stereo partly drawn)
## Output 0.541

## Input Reported composite z-score for wheat germ agglutinin (Triticum aestivum), Alexa647-labelled, given C=CCC(OC(C)=O)[C@@H]1[C@@H](N(Cc2ccc(-c3ccccc3)cc2)C(=O)Cc2ccc(OC)cc2)c2cc(OCCCO)ccc2N1C(=O)c1ccc2ccccc2n1 (stereo partly drawn) ?
## Output 0.22

## Input // map CC=CC(O)C1C=CC2C(=O)N(c3ccccc3)C(=O)C2N1Nc1ccc(C(C)C)cc1 (stereo not drawn) to recorded composite z-score (system: wheat germ agglutinin (Triticum aestivum), Alexa647-labelled)
## Output 1.32

## Input Field: composite z-score (wheat germ agglutinin (Triticum aestivum), Alexa647-labelled). Entry: NCCCCCCNC(=O)[C@H]1C[C@H]2C(=O)NCC(=O)N2[C@H]1c1cccc(OCCO)c1
## Output 1.08
